# STUDY_SYSTEM: PD-1/PD-L1 (Homo sapiens (Human), UniProt Q9NZQ7)
# Sequence (Q9NZQ7 19-238): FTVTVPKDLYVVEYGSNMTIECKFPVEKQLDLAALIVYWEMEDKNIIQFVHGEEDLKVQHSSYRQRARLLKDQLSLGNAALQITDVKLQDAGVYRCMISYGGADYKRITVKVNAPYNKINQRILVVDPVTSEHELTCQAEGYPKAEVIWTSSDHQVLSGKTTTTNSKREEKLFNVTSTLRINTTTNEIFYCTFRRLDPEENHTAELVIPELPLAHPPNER
# ASSAY_OVERVIEW: PD-1/PD-L1 Binding Assay (Alphascreen)
# COND: range symbols
pIC50: −log10 of the molar value.

>  <MOLECULE>
Cc1c(-c2nc3cc(CN4CCC[C@H]4C(=O)O)c(OC(F)F)cc3o2)cccc1-c1cccc(N2CCC(CN3CC(C)(C)C3)CC2)c1C [Example 308]

>  <STUDY_SYSTEM>
PD-1/PD-L1 (Homo sapiens (Human), UniProt Q9NZQ7)

>  <pIC50>
8.30 to 10.00

$$$$
>  <MOLECULE>
Cc1c(-c2nc3cc(CN4CCC[C@H]4C(=O)O)c(OC(F)F)cc3o2)cccc1-c1cccc(-c2nc3cc(CN4CCC(C)(F)C4)cc(C#N)c3o2)c1C (stereo partly drawn) [Example 167]

>  <STUDY_SYSTEM>
PD-1/PD-L1 (Homo sapiens (Human), UniProt Q9NZQ7)

>  <pIC50>
7.30 to 8.30

$$$$
>  <MOLECULE>
CCCNCCCNCc1cc2nc(-c3cccc(-c4cccc(-c5nc6cc(CN7CCC[C@H]7C(=O)O)c(OC(F)F)cc6o5)c4C)c3C)oc2cc1OC(F)F [Example 52]

>  <STUDY_SYSTEM>
PD-1/PD-L1 (Homo sapiens (Human), UniProt Q9NZQ7)

>  <pIC50>
8.30 to 10.00

$$$$
>  <MOLECULE>
Cc1c(-c2nc3cc(CN4CCC[C@H]4C(=O)O)c(OC(F)F)cc3o2)cccc1-c1cccc(-c2nc3c(F)c(F)c(CN4CCCC4)cc3n2CC(F)(F)F)c1C [Example 300]

>  <STUDY_SYSTEM>
PD-1/PD-L1 (Homo sapiens (Human), UniProt Q9NZQ7)

>  <pIC50>
< 7.30

$$$$
>  <MOLECULE>
Cc1c(-c2nc3cc(CN4CCC4C)ccc3o2)cccc1-c1cccc(-c2nc3cc(CN4CCC[C@H]4C(=O)O)c(OC(F)F)cc3o2)c1C (stereo partly drawn) [Example 313]

>  <STUDY_SYSTEM>
PD-1/PD-L1 (Homo sapiens (Human), UniProt Q9NZQ7)

>  <pIC50>
8.30 to 10.00

$$$$
>  <MOLECULE>
Cc1c(-c2nc3c(o2)CN(CCO)CC3)cccc1-c1cccc(-c2nc3cc(CN4CCC[C@H]4C(=O)O)c(OC(F)F)cc3o2)c1C [Example 189]

>  <STUDY_SYSTEM>
PD-1/PD-L1 (Homo sapiens (Human), UniProt Q9NZQ7)

>  <pIC50>
8.30 to 10.00

$$$$
>  <MOLECULE>
Cc1c(-c2nc3c(o2)CCN(Cc2cccnc2)C3)cccc1-c1cccc(-c2nc3cc(CN4CCC[C@H]4C(=O)O)c(OC(F)F)cc3o2)c1C [Example 194]

>  <STUDY_SYSTEM>
PD-1/PD-L1 (Homo sapiens (Human), UniProt Q9NZQ7)

>  <pIC50>
7.30 to 8.30

$$$$
>  <MOLECULE>
Cc1c(-c2nc3cc(CN4CCC[C@H]4C(=O)O)c(OC(F)F)cc3o2)cccc1-c1cccc(N2CCC(NCC3(CO)CC3)CC2)c1C [Example 307]

>  <STUDY_SYSTEM>
PD-1/PD-L1 (Homo sapiens (Human), UniProt Q9NZQ7)

>  <pIC50>
8.30 to 10.00

$$$$
>  <MOLECULE>
COc1nc(-c2cccc(-c3cccc(-c4nc5cc(CN6CCC[C@H]6C(=O)O)c(OC(F)F)cc5o4)c3C)c2C)ccc1CN1CCC[C@@H]1C [Example 277]

>  <STUDY_SYSTEM>
PD-1/PD-L1 (Homo sapiens (Human), UniProt Q9NZQ7)

>  <pIC50>
8.30 to 10.00

$$$$
>  <MOLECULE>
C=Cc1cc(-c2cccc(-c3cccc(-c4nc5cc(CN6CCC[C@H]6C(=O)O)c(OC(F)F)cc5o4)c3C)c2C)ncc1CN1CCCC1 [Example 274]

>  <STUDY_SYSTEM>
PD-1/PD-L1 (Homo sapiens (Human), UniProt Q9NZQ7)

>  <pIC50>
8.30 to 10.00

$$$$
>  <MOLECULE>
Cc1c(-c2nc3cc(CN4CCCC4)ccc3o2)cccc1-c1cccc(-c2nc3cc(CN4CCC[C@H]4C(=O)O)c(OC(F)F)cc3o2)c1C [Example 98]

>  <STUDY_SYSTEM>
PD-1/PD-L1 (Homo sapiens (Human), UniProt Q9NZQ7)

>  <pIC50>
8.30 to 10.00

$$$$
>  <MOLECULE>
Cc1c(-c2nc3cc(CN4CCC[C@H]4C(=O)O)c(OC(F)F)cc3o2)cccc1-c1cccc(-c2nc3cc(CN4CC(N5CC(C)(O)C5)C4)cc(C#N)c3o2)c1C [Example 150]

>  <STUDY_SYSTEM>
PD-1/PD-L1 (Homo sapiens (Human), UniProt Q9NZQ7)

>  <pIC50>
8.30 to 10.00

$$$$

----------
# STUDY_SYSTEM: PD-1/PD-L1 (Homo sapiens (Human), UniProt Q9NZQ7)
# ASSAY_OVERVIEW: PD-1/PD-L1 Binding Assay (Alphascreen)
# COND: range symbols
IC50 by entry:
READOUT_TYPE: IC50

>  <INPUT_SMILES>
Cc1c(-c2ccc(CN3Cc4ccc(NC(N)=O)cc4C3)c(F)c2)cccc1-c1cccc(-c2nc3cc(CN4CCC[C@H]4C(=O)O)c(OC(F)F)cc3o2)c1C

>  <ENDPOINT_RESULT>
5 to 50 nM

$$$$
>  <INPUT_SMILES>
Cc1c(-c2nc3cc(CN4CCC[C@H]4C(=O)O)c(OC(F)F)cc3o2)cccc1-c1cccc(-c2nc3cc(CN4CC(CO)C4)cc(C#N)c3o2)c1C

>  <ENDPOINT_RESULT>
0.1 to 5 nM

$$$$
>  <INPUT_SMILES>
Cc1c(-c2nc3cc(CN4CCC[C@H]4C(=O)O)c(OC(F)F)cc3o2)cccc1-c1cccc(-c2nc3cc(CN(C)CC#N)cc(C#N)c3o2)c1C

>  <ENDPOINT_RESULT>
0.1 to 5 nM

$$$$

----------
# ASSAY_OVERVIEW: Pharmacokinetic Assay, single oral dose 5 mg/kg (Table 12)
# Type: in vivo
# COND: mouse; plasma concentration, C57 female mice, single oral dose 5 mg/kg, 2 h
Returns one of T or F; T when concentration at 2 h is >= 300 ng/mL.

>  <COMPOUND>
COC1CCN(Cc2ccc(-c3cccc(-c4cccc(-c5nc6cc(CN7CCC[C@H]7C(=O)O)c(OC(F)F)cc6o5)c4C)c3C)cc2)C1 (stereo partly drawn)

>  <CLASS>
F

$$$$
>  <COMPOUND>
Cc1c(-c2ccc3c(c2)CCNC3)cccc1-c1cccc(-c2nc3cc(CN4CCC[C@H]4C(=O)O)c(OC(F)F)cc3o2)c1C

>  <CLASS>
F

$$$$
>  <COMPOUND>
Cc1c(-c2nc3cc(CN4CCC[C@H]4C(=O)O)c(OC(F)F)cc3o2)cccc1-c1cccc(-c2nc3cc(CN4CC[C@@H](C#N)C4)cc(C#N)c3o2)c1C

>  <CLASS>
T

$$$$
>  <COMPOUND>
Cc1c(-c2nc3cc(CN4CCOCC4)c(OC(F)F)cc3o2)cccc1-c1cccc(-c2nc3cc(CN4CCC[C@H]4C(=O)O)c(OC(F)F)cc3o2)c1C

>  <CLASS>
F

$$$$
>  <COMPOUND>
Cc1c(-c2ccc(CN3CCCC3)c(C(F)(F)F)c2)cccc1-c1cccc(-c2nc3cc(CN4CCC[C@H]4C(=O)O)c(OC(F)F)cc3o2)c1C

>  <CLASS>
T

$$$$
>  <COMPOUND>
Cc1c(-c2nc3c(o2)CCN(CCC(F)(F)F)C3)cccc1-c1cccc(-c2nc3cc(CN4CCC[C@H]4C(=O)O)c(OC(F)F)cc3o2)c1C

>  <CLASS>
T

$$$$
